Please respond with reported protein stability index for every item in the list.
# protocol.description: protein stability index of a GFP-peptide fusion (yeast GPS) (PSI 1-4); higher = more stable; sorted into four equal gates, so the index is relative within each strain
# assay.conditions: ubr1∆
Give only the figure.

What does the data say about its protein stability index? Entry: KLTDEQSSLDVAGLEDK [SIR3]
3.1

How about LFAESHDVLQKLNTLSE [YML103C/NUP188] ?
3

How about NESFNRRISSMPGGYFH [YAR002W/NUP60] ?
3.04

How about TLEDKFLLLAVNKYGLR [ISW2] ?
2.29

How about HCITSITLALADAGIEL [MTR3] ?
1.55

How about DPIWQHQSLGPDGLGEV [RET1] ?
3.35

How about ESLKKSPIFEVLSDDAK [ARP9] ?
3.32

How about VELTYSLNNSDSLISGV [BRR2] ?
3.12

How about VPTVPPSQSEEQKGQMA [MED4] ?
2.6

How about KNVKHSGNIQLDEIIEI [RPL12A] ?
3.22

How about DPLVSLMMVEKVPDSTY [RPT6] ?
2.89

How about TSLFGSSSAQQTKSNGT [YJL041W/NSP1] ?
3.19

How about LGYKAKQGFVIYRVRVR [RPL15A] ?
1.84

How about TSPGFGVSSPGFSPTSP [RPO21] ?
2.93

How about ERRVLLSAPLSKELRAQ [RPL26B] ?
2.79

How about PKMGVSSSSLECATCHG [RPO31] ?
3.2

How about VQQSEKLRNEVERIQKM [YIL149C/MLP2] ?
3.24

How about QLWLNSSGDFDDNNNNN [GRR1] ?
3.06

How about EKQTPNKKDKKKEEEEQ [RPN1] ?
3.16

How about FSISYKPPTQKTDTKVS [SRP21] ?
2.11

How about EEAPAPTPAASAPAPAA [FAS2] ?
3.02

How about FHNAVFNSFRRFKSQFL [QCR8] ?
1.54

How about NISNNLQKALTVKTNDE [RPN8] ?
2.88

How about RDGVLTVTLNKNREVVQ [RRP45] ?
2.73

* * *

# protocol.description: protein stability index of a GFP-peptide fusion (yeast GPS) (PSI 1-4); higher = more stable; sorted into four equal gates, so the index is relative within each strain
# assay.conditions: san1∆
measured.attribute: protein stability index

What does the data say about its protein stability index? Entry: SGQTPVQSKARYTVRTF [RPL11A]
1.72

How about TTFRNEYGKHDFKNEES [MED8] ?
3.14

How about IKVENLNDTTEKSKALE [SMC2] ?
3.35

How about PVYATIGVETGSEPLIQ [PRP28] ?
2.92

How about ERRVLLSAPLSKELRAQ [RPL26B] ?
2.89

How about NSTSKNTLLQQQNYSKV [SWI1] ?
2.08

How about LALTTLSEPLIKIGIRV [YCG1] ?
1.74

How about YIHRIGRTGRAANEGTA [PRP28] ?
3.26

How about FQDYLTQQAVNLEKNYL [IRR1] ?
2.02

How about EERFSELFKGYLADDID [RPL5] ?
3.3

How about LTNQLYKNHELLKLERK [SNF2] ?
3.11

How about TSLFGSSSAQQTKSNGT [YJL041W/NSP1] ?
2.71

How about QLWLNSSGDFDDNNNNN [GRR1] ?
3.17

How about TKLTTCKRELAFVKQKN [YIL149C/MLP2] ?
1.54

How about AFGLGAIMSKSSLEELL [ECM29] ?
1.71

How about IVPGTYIQERNPTQRPQ [RPS10A] ?
3.05

How about REAIRPGHEMEDFLDKS [AAR2] ?
3.24

How about AKEELNGLKDQLNEERS [YIL149C/MLP2] ?
3.19

How about PQQAQMQQAQFQAQQAQ [SNF2] ?
2.99

How about KNTEEGKALVHHYEECA [QCR6] ?
3.5

How about SRDELIRLAKTLKKNNV [RPN10] ?
2.42

How about VSFDFNGVPGQALDAVR [MED8] ?
3.32

How about EEEYDETHETNISNAKL [YAR002W/NUP60] ?
3.44

How about FIPNKQLNCVIDRVNGI [RPN7] ?
2.73

How about IQEYQLCDNFNHFSLSY [COR1] ?
2.44

How about VKEEKEDMETQASDPSK [RPC53] ?
3.2

How about FHKYRLKRNSWPKTRGV [RPL2A] ?
2.83

How about PNIVEIDLDNDEDDDED [DLS1] ?
2.89

How about HKHNIMKNENANPKKLA [CDC53] ?
2

How about EASTVPWGDYLQLETPA [BRR2] ?
2.58

How about SRFTNVSVIAPESQGQH [YMR153W/NUP53] ?
2.6

How about AQGTKFRISLGLPVGAI [RPL23A] ?
1.42

How about KAEFSKEMTLQKNMNDL [YIL149C/MLP2] ?
3.23

How about LLSIPISCPLIGVIQLA [FAS1] ?
1.23

How about KVTKIWSKESNYDCKVI [PRP28] ?
2.61

How about PPGTGKTLCARAVANRT [RPT1] ?
1.37

How about STVSGELNDNPAWFNNP [YMR153W/NUP53] ?
3.29

How about TLRKELEQIQVQLKDAN [YIL149C/MLP2] ?
2.67

How about LFNNHLNGILADEMGLG [SNF2] ?
3.28

How about NTKVPVDIVNQWFLQYQ [YML103C/NUP188] ?
1.85

How about QRVRNMRELGLIQSTEF [YOR098C/NUP1] ?
2.84

How about LQYLPLYAVSTFENTNN [SIR4] ?
1.41

How about EGTRNRFSYSPPKEGNY [YMR129W/POM152] ?
2.88

How about KLLFQELMAMNITPRLY [RPB2] ?
1.24

How about MTVNDQPIEKNGDKMPL [YJR042W/NUP85] ?
2.45

How about MSRDAPIKADKDYSQIL [RPN5] ?
2.21

How about TMGMRALLKLSVKLKQK [DIS3] ?
1.21

How about KKRLMDIDDELNELETL [SMC2] ?
3
